In this section, each of the compounds is paired with its reported pIC50.
# METHOD SUMMARY: Inhibition of Hsp70 (unknown origin) by ATPase activity
# Parameters: species or system Homo sapiens
Scale note: pIC50 = -log10(concentration in M).

CCn1c(=O)/c(=C2/Sc3ccccc3N2C)s/c1=C\c1cccc[n+]1C : 5.49

Looking for the measured pIC50 of "N#Cc1ccc(COC[C@H]2O[C@@H](n3c(NCc4ccc(Cl)c(Cl)c4)nc4c(N)ncnc43)[C@H](O)[C@@H]2O)cc1" , can you help?
6.30

* * *

# TESTED SYSTEM: UniProt:O95433
# METHOD SUMMARY: Inhibition of human recombinant Aha1 expressed in Escherichia coli BL21 (DE3)
REPORTED PROPERTY: pIC50
Scale note: pIC50 = -log10(concentration in M).

Looking for the measured pIC50 of "O=C(NNC(=S)Nc1cccc(C(F)(F)F)c1)c1cccn1-c1ccc(F)cc1" , can you help?
6.52
